# Tested on: Oryza sativa
# assay-name: Effect on Oryza sativa (rice) assessed as growth rate at 10 uM relative to control
# Assay type: organism-based
# details: in vivo
Collected Activity values appear next to each entry.
Answer with a number only, understood to be in %.

Problem: Find the recorded Activity belonging to `C[C@@H](NC(=O)Nc1c(F)cccc1F)c1ccccc1` and report it.
Result: 98

Problem: Would you kindly share the measured Activity for `CCOC(=O)c1ccccc1NC(=O)N[C@@H](C)c1ccccc1` ?
Result: 100

Problem: If you can, please state the reported Activity value of `C[C@H](NC(=O)Nc1ccccc1)c1ccccc1` .
Result: 90

Problem: Request the reported Activity associated with `C[C@@H](NC(=O)Nc1cc(Cl)ccc1Cl)c1ccccc1`
Result: 101

Further cases:
Problem: Can you share its Activity? I mean this compound: `CCCc1ccc(NC(=O)N[C@@H](C)c2ccccc2)cc1`
Result: 73

Problem: State the recorded Activity for this entry: `C[C@@H](NC(=O)Nc1cc(C(C)(C)C)ccc1C(C)(C)C)c1ccccc1`
Result: 99

---

# System: Oryza sativa
# assay-name: Effect on Oryza sativa (rice) assessed as growth rate at 1 uM relative to control
# Type: organism-based
# details: in vivo
test-readout: Activity
I'd appreciate it if you wrote the number followed by its unit.

Problem: Find Activity (Oryza sativa) for the entry `C[C@@H](NC(=O)Nc1cc(C(C)(C)C)ccc1C(C)(C)C)c1ccccc1`
Result: 99%

Problem: Oryza sativa / Activity / `C[C@@H](NC(=O)Nc1cc(Cl)ccc1Cl)c1ccccc1` : value?
Result: 100%

Problem: Provide value of Activity for this record tested with Oryza sativa: `C[C@@H](NC(=O)Nc1ccc(Cl)cc1)c1ccccc1`
Result: 95%

Problem: # query: Activity | item `CCOC(=O)c1cccc(NC(=O)N[C@@H](C)c2ccccc2)c1` | system: Oryza sativa
Result: 99%

Problem: Lab note: need Activity for `C[C@@H](NC(=O)Nc1cc(C(F)(F)F)ccc1F)c1ccccc1` on Oryza sativa, anyone have it?
Result: 70%

New cases:
Problem: Look up Activity with Oryza sativa for this molecule: `C[C@@H](NC(=O)Nc1ccccc1)c1ccccc1`
Result: 98%

Problem: Activity of `CCc1cccc(CC)c1NC(=O)N[C@H](C)c1ccccc1` on Oryza sativa?
Result: 101%

---

# Test system: Oryza sativa
# assay-name: Relieving activity against bensulfuron-methyl induced injury to Oryza sativa (rice) assessed as growth rate at 1 uM (Rbv = 46 to 53%)
# Type: functional
Entry flag: criterion met if Activity reaches 70%; criterion not met if it does not.

Problem: Please indicate if the recorded Activity for `CCc1ccccc1NC(=O)N[C@@H](C)c1ccccc1` meets or exceeds 70%.
Result: criterion not met

Problem: Threshold query (Activity >= 70%) on `C[C@H](NC(=O)Nc1cccc(F)c1F)c1ccccc1`
Result: criterion met

Problem: Quick check, Activity >= 70%? `C[C@@H](NC(=O)Nc1ccc(C(C)(C)C)cc1)c1ccccc1`
Result: criterion not met

Problem: Please tell me: is the compound `C[C@H](NC(=O)Nc1ccccc1Br)c1ccccc1` at or over 70% in terms of Activity?
Result: criterion met

Problem: Check the entry `C[C@H](NC(=O)Nc1ccccc1Cl)c1ccccc1` : does Activity equal or exceed 70%?
Result: criterion met

---
Problem: Would you say `CC(C)c1ccc(NC(=O)N[C@@H](C)c2ccccc2)cc1` shows Activity at minimum 70%?
Result: criterion met

Problem: State whether the measured Activity reaches 70%, counting equality as reaching it, for `CCOC(=O)c1ccc(NC(=O)N[C@@H](C)c2ccccc2)cc1`
Result: criterion met

Problem: Is Activity at least 70%? Consider `C[C@H](NC(=O)Nc1cc(F)ccc1F)c1ccccc1`
Result: criterion met

Problem: Does the compound `COc1ccc(NC(=O)N[C@H](C)c2ccccc2)cc1` have recorded Activity that is 70% or more?
Result: criterion not met

Problem: Hi team, for `C[C@@H](NC(=O)Nc1ccccc1Br)c1ccccc1` , is the recorded Activity at or above 70%?
Result: criterion not met
